target: GTPase HRas (Homo sapiens); test: Ras wt fluorescent GTP loading blockade – biochemical, wildtype, multiplex bead flow cytometry, dose response (AID 1335); details: bead-based flow cytometry, Bodipy-GTP binding to GST-Ras; at 100 µM (top of the series) unless noted

compound	GTP binding, percent of control [%]
CCN1C(=O)/C(=C/C=C2/Sc3ccc4ccccc4c3N2CCO)SC1=S	59.2
CCc1ccc(Sc2cc(C(=O)O)c3ccccc3n2)cc1	86
CCOc1cc(C2c3c(-c4ccccc4)n[nH]c3C(=O)N2c2ccc(C(=O)O)cc2)ccc1O (stereo not drawn)	79.3
COC(=O)COc1ccc(/C=N/NC(=O)c2ccc(N(Cc3ccccc3)S(C)(=O)=O)cc2)cc1	55.5
O=C(C[n+]1cccc(CNC(=O)c2ccc(OC(F)F)cc2)c1)Nc1ccccc1Cl	60.5
O=C(NC1CCCCC1)c1noc2c1CCCCC2	80.9
O=C(O)c1nnn(Cc2ccccc2)c1C(=O)O	82.2
CCOc1ccc(NCc2ccccc2OCc2cccc(F)c2)cc1	68.1
O=C(O)c1cccc(-n2cccc2/C=C2/NC(=O)N(c3ccc(Cl)cc3)C2=O)c1	64.3
O=C(O)c1cn(CCOc2ccccc2)c2ccccc12	92.7
COc1ccc(OC)c(/C=N/NC(=O)c2ccc(Cn3cc([N+](=O)[O-])cn3)o2)c1	66.3
S=C(NCCc1ccccc1)NC1CC1	79.2
CC(SC(=S)N(C)Cc1cccs1)C(=O)O (stereo not drawn)	79.5
CC(=O)Nc1cccc(C#CC(=O)c2ccc([N+](=O)[O-])cc2)c1	178
CC(C)(C)C(=O)/C=c1\s/c(=C\c2ccc(-c3ccc([N+](=O)[O-])cc3)o2)c(=O)n1CC(=O)NC(N)=O	141
Cc1cccc(/C=N/N(CCO)C2=NS(=O)(=O)c3ccccc32)c1	67.6
COc1cc2nc(=S)n(CCCN3CCOCC3)c(N)c2cc1OC	79.4
O=C(Nc1nccs1)c1ccc(-c2cccc([N+](=O)[O-])c2)o1	72.4
CC(=O)OC(C(=O)NC1CCCCC1)c1ccc(Cl)cc1 (stereo not drawn)	82.1
Clc1ccccc1-c1ccc(/C=N/Nc2nncc(-c3ccccc3)n2)o1	89.5
Cc1c(C(=O)N2CCc3ccccc3C2)oc2ccc(S(=O)(=O)N3CCCCCC3)cc12	76
Cc1cc(C(F)F)n2nc(C(=O)Nc3ccc(S(=O)(=O)N4CCCCCC4)cc3)nc2n1	82.1
O=C(CN1CCN(CCOCCO)CC1)N1c2ccccc2Sc2ccc(Cl)cc21	82.2
O=C1CC(c2ccc(F)cc2)Sc2ccccc2N1 (stereo not drawn)	170
Cc1ccc(Nc2nc(-c3c(C)nc4ncccn34)cs2)cc1	43.7
O=c1[nH]c(N/N=C/c2ccc(O)cc2)nc2ccccc12	71
O=C(NNc1nc(-c2ccccc2)c2cc(Br)ccc2n1)c1ccc(S(=O)(=O)N2CCOCC2)cc1	53.5
Nc1[nH]n2c(=O)c3c(nc2c1N=Nc1ccccc1)CCCC3	41.6

* * *

assay: rapamycin-like changes in RPL19A-GFP expression – cell-based, S. cerevisiae, multiplex flow cytometry, primary screen (AID 1862);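 note: lower values mimic rapamycin by blocking the RPL19A rise seen in DMSO cells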; conditions: S. cerevisiae RPL19A-GFP strain, flow cytometry fluorescence, 3 h; at 10 µM; stronger effect = lower value
Inconclusive results are not listed.
Below, each of the compounds is paired with its reported percent of DMSO control GFP value.
readout_kind: percent of DMSO control GFP (%)

compound	readout_kind	unit_symbol	reported
CN1CCCN(C(c2ccccc2)c2ccc(Cl)cc2)CC1 (stereo not given)	percent of DMSO control GFP	%	97.1
NCc1ccccc1COc1ccccc1	percent of DMSO control GFP	%	105
COc1ccc(S(=O)(=O)NCc2ccco2)c2ccccc12	percent of DMSO control GFP	%	100
Cc1cnc(N)c2c(=O)oc3ccccc3c12	percent of DMSO control GFP	%	99.8
O=C(NCc1ccco1)/C(=C\C=C\c1ccccc1)NC(=O)c1ccccc1Br	percent of DMSO control GFP	%	108
Cc1ccc2c(c1)c(C)cc(=O)n2CCC(=O)O	percent of DMSO control GFP	%	101
CC(C)OC(=O)C1C2C=CC3(CN(CC4CCCO4)C(=O)C13)O2 (stereo not given)	percent of DMSO control GFP	%	99.1
COc1ccc(C(Cl)=C(c2ccc(OC)cc2)c2ccc(OC)cc2)cc1	percent of DMSO control GFP	%	102
CC(=O)SC1CC2=CC(=O)CCC2(C)C2CCC3(C)C(CCC34CCC(=O)O4)C12 (stereo not given)	percent of DMSO control GFP	%	103
CCOC(=O)c1cc2c(nc1N)CC(C)(CC)OC2 (stereo not given)	percent of DMSO control GFP	%	101
O=C(CN1C(=O)/C(=C/c2cccc(Br)c2)SC1=S)Nc1cccnc1	percent of DMSO control GFP	%	101
C#C[C@]1(O)CC[C@H]2[C@@H]3CCc4cc(OC5CCCC5)ccc4[C@H]3CC[C@@]21C	percent of DMSO control GFP	%	101
O=c1c(-c2ccccc2)c(O)c2cccc3c2n1CCC3	percent of DMSO control GFP	%	99.7
CCCC(CCC)C(=O)OC1C[C@H]2CC[C@@H](C1)[N+]2(C)C (stereo not given in full)	percent of DMSO control GFP	%	95.2
CCC1(c2ccccc2)NC(=S)N(c2ccc(C)c(C)c2)N1 (stereo not given)	percent of DMSO control GFP	%	100

* * *

assay: yeast TOR pathway reporter LAP4-GFP change – cell-based, cherry picks, flow cytometry, mother/daughter gates, confirmation (AID 2271);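 note: ratio of sample to DMSO plate mean so 100% equals DMSO level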; conditions: S. cerevisiae LAP4-GFP strain, 3 h, measured here: daughter cell gate response, at 10 µM, stronger effect = higher value, 100 means same as DMSO control

compound	GFP response relative to DMSO [%]
O=c1cnn([C@@H]2O[C@H](CO)[C@@H](O)[C@H]2O)c(=O)[nH]1	104
CCOC(=O)N1CCN(C(=O)CCc2ccc(S(=O)(=O)NCCc3ccccc3)cc2)CC1	99
O=C(/C=C/c1ccccc1)c1ccccc1	96.5
Cn1c(=O)c(C(=O)NCCO)c(O)c2ccccc21	86.4
COc1ccc(C(=O)NCC2OCCc3ccccc32)cc1 (stereo not drawn)	102
COc1ccc(-c2[nH]ncc2CN(CCO)Cc2cccs2)c(F)c1	94.4
O=C(C#Cc1ccccc1)c1cccc([N+](=O)[O-])c1	166
O=C(O)CCNC(=O)c1ccccc1	102

* * *

experiment: calorie-restriction mimetic ROS inhibitors, yeast – validation compound set, pilot screen (AID 2706);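 note: yeast exposed to compound for one week at 30 degrees C before staining; 100% = mean of all compound wells on the same plate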; conditions: S. cerevisiae aging, superoxide DHE fluorescence; at 10 µM; stronger effect = lower value
Measured superoxide response (% of plate), listed per entry.
readout_kind: superoxide response (% of plate) (%)

compound	reported
CC(C)(C)C(=O)NCCCNc1ccc([N+](=O)[O-])cc1	86
CCNC(=O)C12CCC(C)(C(=O)O1)C2(C)C (configuration not stated)	105
CCN(CC)c1ccc(C2=NNC(=O)CC2C)cc1[N+](=O)[O-] (configuration not stated)	110
COc1cc2c(cc1OC)CN(Cc1ccc(C)s1)CC2	103
COc1ccc(CNC(=O)c2c(O)c3cccc4c3n(c2=O)CCC4)cc1	96.7
COc1cccc(OCC(O)CO)c1 (configuration not stated)	94.9
O=c1cc(-c2ccccc2)oc2cc(OCc3ccccc3)cc(O)c12	88.6
O=C(COc1ccc2c(-c3ccccc3)cc(=O)oc2c1)NCc1cccs1	92.2
NC(N)=NC(N)=Nc1ccc2ccccc2c1	106
CCOc1ccc(CC2CCC(=O)NC2=O)cc1 (configuration not stated)	105
CCC(CO)NCCNC(CC)CO (configuration not stated)	91.3
CCSC(SCC)[C@H](O)[C@@H](O)[C@H](O)[C@H](O)CO	114

* * *

assay: TOR pathway RTG branch CIT2 reporter changes – S. cerevisiae, GFP fusion, multiplex flow cytometry, primary screen (AID 1870);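 note: barcoded CIT2-GFP strain pooled with four other GFP strains with rapamycin as positive control; median GFP fluorescence per well over plate mean of DMSO wells so 100% = DMSO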; settings: S. cerevisiae CIT2-GFP expression, 3 h, at 10 µM, stronger effect = higher value
Reported percent response of DMSO control values for a set of molecules

molecule	unit_symbol	percent response of DMSO control
Clc1ccc(CCNc2ncnc3nc[nH]c23)cc1	%	92
CNC(=O)Oc1ccc2c(c1)[C@]1(C)CCN(C)[C@@H]1N2C	%	86
COC(=O)c1ccccc1NC(=O)c1ccc(COc2ccc3c(c2)CCC3)cc1	%	90.8
O=C1C(Cc2ccccc2)NC(=S)N1c1ccccc1 (centres undefined)	%	92

* * *

test: AML differentiation inducers, ER-HoxA9 marrow cells – cell-based, GFP/MAC1 double positive, flow cytometry, validation set, primary screen (AID 588685); conditions: stronger effect = higher value, normalized: vehicle 0, fulvestrant 100;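 note: compound exposure lasts four days before antibody staining and flow analysis; 0% = DMSO wells and 100% = 5 µM fulvestrant positive control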
Each entry below carries its reported differentiation response.

compound	unit_symbol	differentiation response
CC1=NS(=O)(=O)c2cc(Cl)ccc2N1	%	34.5
CC(=O)N(CCC(Cc1ccccc1)c1ccc2c(c1)OCO2)Cc1ccc(Cl)cc1 (configuration not stated)	%	-3.28
Cc1ccc(S(=O)(=O)NC(=O)Nc2cc(C)ccc2F)cc1	%	34.5
COc1cc(/C=C/C(=O)O)cc(S(=O)(=O)NCCCO)c1OC	%	-15.2
COc1cc(C2NCCc3c2[nH]c2ccccc32)ccc1OC(C)C (configuration not stated)	%	-10.4
COc1ccc(O)c(C2=Nc3ccccc3N=C(c3ccccc3)C2)c1	%	2.46
CC1(c2ccccc2)CC(C)(C)N2C(=O)C(=O)c3cccc1c32 (configuration not stated)	%	0.8

meta.source: PubChem BioAssay
